# system name: GDP loaded biotinylated KRas^G12C protein (Homo sapiens, UniProt P01116, G12C)
# Construct: biotin (biotinylated); made in house
# Sequence (P01116 1-188 isoform P01116-2 G12C): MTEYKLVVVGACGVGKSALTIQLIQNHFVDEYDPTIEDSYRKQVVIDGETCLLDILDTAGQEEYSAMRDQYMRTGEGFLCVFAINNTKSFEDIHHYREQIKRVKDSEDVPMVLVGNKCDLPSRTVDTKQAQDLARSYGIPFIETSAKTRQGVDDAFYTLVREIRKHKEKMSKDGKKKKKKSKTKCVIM
# assay name: KRasG12C functional assay
# Assay type: biochemical
# test conditions: HTRF FRET readout of SOS-mediated nucleotide exchange and GST-Raf RBD binding; samples incubated for 4 hrs; read-out: KRasG12C functional assay IC50 value
pIC50: −log10 of the molar value.
observable: pIC50

Before answering, review these 3 worked examples.
compound | endpoint result
C=CC(=O)N1CCN2c3nc(N4CC(N(C)C)C4)nc4cc(-c5c(C)ccc6[nH]ncc56)c(Cl)c(c34)OC[C@@H]2C1 (single isomer, unassigned) [Example 77] | 7.68
C=CC(=O)N1CCN2c3ncnc4cc(-c5c(C)ccc6[nH]ncc56)c(Cl)c(c34)OCC[C@@H]2C1 (single isomer, unassigned) [Example 81] | 7.92
C=CC(=O)N1CCN2c3ncnc4cc(-c5ccc(N)cc5C)c(Cl)c(c34)OC[C@@H]2C1 | 5.59

(A) C=CC(=O)N1CCN2c3ncnc4cc(-c5c(O)cccc5OC)c(Cl)c(c34)OC[C@@H]2C1 (single isomer, unassigned) [Example 18]
(B) C=CC(=O)N1CCN2c3ncnc4c(Cl)c(-c5c(C)ccc6[nH]ncc56)cc(c34)OC[C@@H]2C1
(C) C=CC(=O)N1CCN2c3ncnc4cc(-c5cccc6oc(=O)n(C)c56)c(Cl)c(c34)OC[C@@H]2C1
Highest pIC50 first, then in falling order down to the smallest. Your task in answering is to list the labels in the requested order. B, A, C
(B: 6.49, A: 6.06, C: 5.01)

Values compiled from patent US20220127281A1.
